Assay: Viability qHTS for spleen associated tyrosine kinase inhibitor (SYKi) drug resistant MV4-11 cells (AID 1963824); also: nearly all actives have a fitted effect of over 35% in size
Conditions: SYKi-resistant MV4-11 viability, CellTiter-Glo, 72 h; series mostly up to 45 µM
Inconclusive results are not listed. Active and inactive are the calls of the source. Calls follow the shape of the dose curve; as a rule, active = well fitted cell-killing curve with a large enough effect; inconclusive = small, poorly fitted or top-dose-only effect, or effect the other way; inactive = no such curve, though single readings can be large or run the other way.
Your answer must be one of the following: True (active), False (inactive)

q: Which outcome was assigned to Cn1c(=O)c2c(ncn2CC2OCCO2)n(C)c1=O in this test?
a: False

q: Which outcome was assigned to Brc1ccc([C@H]2CN3CCSC3=N2)cc1 in this test?
a: False

q: Which outcome was assigned to COC(=O)C1=C(C)NC(C)=C(C(=O)OCCN2CCN(C(c3ccccc3)c3ccccc3)CC2)C1c1cccc([N+](=O)[O-])c1 (centres undefined) in this test?
a: True

q: Which outcome was assigned to CNC(=O)c1c(-c2ccc(F)cc2)oc2cc(N(CCO)S(C)(=O)=O)c(C3CC3)cc12 in this test?
a: False

q: Which outcome was assigned to C[C@]1(CO)CN(c2cc(C(=O)Nc3ccc4c(c3)-c3c(c(C(N)=O)nn3-c3ccc(F)cc3)CC4)c(Cl)cn2)C[C@@]1(C)CO in this test?
a: True

q: Which outcome was assigned to CN(C)CCOc1ccc(-c2nc(-c3ccc4c(c3)CC/C4=N\O)c(-c3ccncc3)[nH]2)cc1 in this test?
a: True

q: Which outcome was assigned to COC1=CC(=O)CC(C)C12Oc1cc(OC)cc(O)c1C2=O (centres undefined) in this test?
a: False

q: Which outcome was assigned to C[C@]12C=CC(=O)C=C1CC[C@@H]1[C@@H]2[C@@H](O)C[C@@]2(C)[C@H]1CC[C@]2(O)C(=O)COC(=O)CCC(=O)O in this test?
a: False

q: Which outcome was assigned to N#Cc1ccc2c(c1)CCN(CCC1CCC(NC(=O)c3ccnc4ccccc34)CC1)C2 (centres undefined) in this test?
a: True

====

Assay: Quantitative highthroughput screen to assess conditional lethalithy of NOMO1 cells grown in RPMI1640 with untreated serum (RPMI+s) (AID 1963876); also: nearly all actives have a fitted effect of over 35% in size
Settings: NOMO1 AML cells in RPMI+serum, CellTiter-Glo viability, 48 h; series mostly up to 45.8 µM
Results filed as inconclusive are left out. Activity calls are given as the source filed them. Calls follow the shape of the dose curve; as a rule, active = well fitted cell-killing curve with a large enough effect; inconclusive = small, poorly fitted or top-dose-only effect; inactive = flat fitted curve, though single readings scatter.
Your answer must be one of the following: yes for active, no for inactive

Worked set:
INSERT INTO assay_data (molecule, answerlabel) VALUES
  ('Cc1cccc(Nc2nc(-c3ccncc3)cs2)c1', 'no'),
  ('CC[C@H]1OC(=O)[C@H](C)[C@@H](O[C@H]2C[C@@](C)(OC)[C@@H](O)[C@H](C)O2)[C@H](C)[C@@H](O[C@@H]2O[C@H](C)C[C@H](N(C)C)[C@@H]2O)[C@](C)(OC)C[C@@H](C)C(=O)[C@H](C)[C@@H](O)[C@]1(C)O', 'no'),
  ('C[C@@H]1CC[C@@]2(OC1)OC1CC3C4CC=C5CC(O)CCC5(C)C4CCC3(C)C1[C@@H]2C (stereo partly drawn)', 'yes'),
  ('O=C(NC1CC1)c1cccc(-c2ccc3c(NC(=O)C4CC4)n[nH]c3c2)c1', 'yes'),
  ('O=c1c(-c2ccc(O)cc2)coc2cc(OC3O[C@H](CO)[C@H](O)[C@H](O)[C@H]3O)cc(O)c12 (stereo partly drawn)', 'no');

q: Which outcome was assigned to CCN(CC)C(=S)SSC(=S)N(CC)CC in this test?
a: yes

Reference source for all entries: PubChem BioAssay (NCATS)
